system: ragweed (common ragweed, Ambrosia elatior); assay: Test A postemergence, visual plant response rating; type: in vivo; details: Postemergence, 125 g ai/ha; 0 to 100 scale (0 no effect, 100 complete control)
quantity_measured: Ragweed plant response rating

Consider the following illustrative entries.
CO/N=C(\c1sccc1C)c1c(O)c(C)nn(C)c1=O [Compound 42] :: 40
C=CCc1ccccc1C(=NOC)c1c(O)c(C)nn(C)c1=O [Compound 122] :: 50

Go through the list and state Ragweed plant response rating for each entry.
1. C=CCc1ccccc1C(=NOC)c1c(O)c(C)nn(C)c1=O [Compound 121]
2. CCC(=O)Oc1c(C)nn(C)c(=O)c1C(=NOC)c1cccc2ccccc12 [Compound 49]
3. CON=C(c1c(OC(C)=O)c(C)nn(C)c1=O)c1cccc2ccccc12 [Compound 120]

Reply:
1. 40
2. 80
3. 20

----------
system: Italian ryegrass (Lolium multiflorum); assay: Test A preemergence, visual plant response rating; assay type: in vivo; conditions: 125 g ai/ha Preemergence; approx. 10 days
quantity_measured: Ryegrass, Italian plant response rating (0 to 100 scale)
Numbers only.

CO/N=C(/c1cccc(C)c1)c1c(O)c(C2CC2)nn(C)c1=O :: 0
C=CCn1nc(C)c(O)c(C(=NOC)c2cccc(Cl)c2)c1=O (mixture of isomers) :: 0
CO/N=C(/c1c(O)c(C)nn(C)c1=O)c1cccc2ccccc12 :: 40
C#CCn1nc(C)c(O)c(C(=NOC)c2cccc(Cl)c2)c1=O (mixture of isomers) :: 30

Now look at this one.
// field: Ryegrass, Italian plant response rating (0 to 100 scale); key: CON=C(c1cccc(Cl)c1)c1c(O)c(C)nn(CC2CC2)c1=O (mixture of isomers) ; value = 0

----------
test system: foxtail, giant (giant foxtail, Setaria faberii); assay: Test A preemergence, visual plant response rating; type: in vivo; settings: 125 g ai/ha, preemergence; 0 to 100 scale, 0 no effect, 100 complete control
Give measured Foxtail, Giant plant response rating for each item. Keep answers brief.

Consider the following illustrative entries.
CON=C(c1c(O)c(C)nn(C)c1=O)c1ccc(OC)c2ccccc12 [Compound 55] :: 10
Cc1nn(C)c(=O)c(C(=NOCC=CCl)c2ccc(F)c3ccccc23)c1O [Compound 107] :: 80
CO/N=C(\c1c(C)cccc1F)c1c(O)c(C)nn(C)c1=O [Compound 39] :: 0
CON=C(c1ccc(F)cc1C)c1c(O)c(C)nn(C)c1=O [Compound 41] :: 0
C=CCc1ccccc1C(=NOC)c1c(O)c(C)nn(C)c1=O [Compound 121] :: 10
CON=C(c1cc(Cl)ccc1Cl)c1c(O)c(C)nn(C)c1=O [Compound 90] :: 50
CO/N=C(/c1ccccc1C#N)c1c(O)c(C)nn(C)c1=O [Compound 77] :: 0
C#CCON=C(c1c(O)c(C)nn(C)c1=O)c1cccc2ccccc12 (mixture of isomers) [Compound 118] :: 80
CCO/N=C(/c1c(O)c(C)nn(C)c1=O)c1cccc2ccccc12 [Compound 78] :: 80
CO/N=C(\c1sccc1C)c1c(O)c(C)nn(C)c1=O [Compound 42] :: 0

Go through the list and state Foxtail, Giant plant response rating for each entry.
1. CON=C(c1cc(C)cs1)c1c(O)c(C)nn(C)c1=O (mixture of isomers) [Compound 133]
2. CON=C(c1cccc(C#N)c1)c1c(O)c(C)nn(C)c1=O [Compound 57]
3. CON=C(c1c(O)c(C)nn(C)c1=O)c1cccc2sccc12 [Compound 58]
4. C=CCO/N=C(\c1c(O)c(C)nn(C)c1=O)c1ccc(F)c2ccccc12 [Compound 86]
5. CON=C(c1c(O)c(C)nn(C)c1=O)c1cccc2cc(Br)ccc12 [Compound 96]

Reply:
[0, 0, 60, 100, 70]

Go through the list and state Foxtail, Giant plant response rating for each entry.
1. CON=C(c1c(O)c(C)nn(C)c1=O)c1ccc(F)c2ccccc12 [Compound 51]
2. CON=C(c1cccc(C(F)(F)F)c1Cl)c1c(O)c(C)nn(C)c1=O [Compound 102]
3. CO/N=C(\c1ccc(C)o1)c1c(O)c(C)nn(C)c1=O [Compound 53]

Reply:
1. 70
2. 0
3. 0

// field: Foxtail, Giant plant response rating; key: CON=C(c1cc(Cl)ccc1C(F)(F)F)c1c(O)c(C)nn(C)c1=O [Compound 97] ; value = 80
